Test system: COLO 205 colon
measurement-notes: NCI-60 one-dose screen, 48 h
assay-conditions: 10 µM unless noted
The panel holds about 83,000 compounds, 20% with a hit somewhere; the sample as a whole holds those more often. The source made the active and inactive calls. Rule for the calls: active = growth percent below 10; inactive = the rest.
Valid outcomes are listed here; reply with one: active, inactive

Write down the call the test reported for this compound. Item: O=S1(=O)OCCO1
inactive

Write down the call the test reported for this compound. Item: C=C[Se]CC(=O)/C=C/c1ccccc1
inactive

Write down the call the test reported for this compound. Item: O=C(CBr)OCCOC(=O)CBr
inactive

Others:
Write down the call the test reported for this compound. Item: COc1ccc(N)cc1N
inactive

Write down the call the test reported for this compound. Item: C[C@]12CC[C@H](O)C[C@@H]1CC[C@@H]1[C@@H]2CC[C@]2(C)OC(=O)CC[C@@H]12
inactive

Write down the call the test reported for this compound. Item: COCC1OC2OC3C(COC)OC(OC4C(COC)OC(OC5C(COC)OC(OC6C(COC)OC(OC7C(COC)OC(OC8C(COC)OC(OC1C(O)C2O)C(O)C8O)C(O)C7O)C(O)C6O)C(O)C5O)C(O)C4O)C(O)C3O (configuration not stated) (tested in a mixture with another compound)
inactive

Write down the call the test reported for this compound. Item: O=C(O)C(F)F
inactive

Write down the call the test reported for this compound. Item: O=C(O)c1ccccc1N(CCO)CCCl
inactive

Write down the call the test reported for this compound. Item: CC[C@H](C)[C@H](NC(=O)CN(C)C)C(=O)N(C)[C@H](C[C@@H](OC(C)=O)c1nc(C(=O)NC23C4C5C2C2C3C4C52C(=O)OC)cs1)C(C)C (some centres not stated)
active

Write down the call the test reported for this compound. Item: CCCC[C@H]1C(=O)O[C@H](C)[C@H](NC(=O)c2cccc(NC=O)c2O)C(=O)O[C@@H](C)[C@@H]1OC(=O)CC(C)C
inactive

Write down the call the test reported for this compound. Item: N#CC(NC(=O)CCl)=C(Cl)Cl
active

Write down the call the test reported for this compound. Item: CC[PH+](CC)CC.O=COC1OC([S-])C(OC=O)C(OC=O)C1OC=O.[Au+] (configuration not stated)
active

Write down the call the test reported for this compound. Item: NC(N)=NC(N)=Nc1ccc(Cl)cc1
inactive

* * *

System: COLO 205 colon
measurement-notes: NCI-60 one-dose screen, 48 h (100 = growth as untreated, 0 = no growth, -100 = all killed)
assay-conditions: 10 µM unless noted
Compounds without any hit were thinned out: in the full panel of roughly 83,000, 20% have a hit. The source made the active and inactive calls. How the source made its calls: active means growth percent below 10; inactive means the rest.
Listing of entries alongside the reported growth.

// CCCC(C)SP(=S)(SC(C)CCC)SC(C)CCC (centres undefined) : growth value = 98.6% (inactive)

// S=P(SP(=S)(c1ccccc1)c1ccccc1)(c1ccccc1)c1ccccc1 : growth value = 118% (inactive)

// CC[C@H](C)[C@H](NC(=O)[C@H]1CCCCN1C)C(=O)N(C)[C@H](C[C@@H](OC(C)=O)c1nc(C(=O)N[C@@H](Cc2ccccc2)C[C@H](C)C(=O)O)cs1)C(C)C : growth value = -80.3% (active)

// C[C@]12CC[C@H]3[C@@H](C[C@@H]4SC(Nc5cccc(F)c5)=N[C@@]45CC(=O)CC[C@]35C)[C@@H]1CCC2=O : growth value = 47.6% (inactive)

// OCCNC1CCCCC1 : growth value = 112% (inactive)

// C[Se]/C=C1/C(=O)N(c2c(Cl)cccc2Cl)c2ccccc21 : growth value = 38.9% (inactive)

// O=C(NC1=NCC[Se]1)c1ccccc1O : growth value = 124% (inactive)

// CC[C@H](C)[C@H]1O[C@]2(C=C[C@@H]1C)C[C@@H]1C[C@@H](C/C=C(\C)[C@@H](O[C@H]3C[C@H](OC)[C@@H](O[C@H]4C[C@H](OC)[C@@H](NC)[C@H](C)O4)[C@H](C)O3)[C@@H](C)/C=C/C=C3\CO[C@@H]4[C@H](O)C(C)=C[C@@H](C(=O)O1)[C@]34O)O2 : growth value = -71.6% (active)

// C[C@@H]1C/C=C\C(=O)O[C@H](/C=C/C#C/C=C/C(C)(C)[C@@H](O)c2cccc(O)c2Br)[C@@H](C)/C=C/[C@H](C)C[C@H](OC(N)=O)C1 : growth value = -26.1% (active)
